- SYSTEM: PxGSTσ2 (Plutella xylostella, UniProt Q6F443)
- Sequence (Q6F443 entry or part of it): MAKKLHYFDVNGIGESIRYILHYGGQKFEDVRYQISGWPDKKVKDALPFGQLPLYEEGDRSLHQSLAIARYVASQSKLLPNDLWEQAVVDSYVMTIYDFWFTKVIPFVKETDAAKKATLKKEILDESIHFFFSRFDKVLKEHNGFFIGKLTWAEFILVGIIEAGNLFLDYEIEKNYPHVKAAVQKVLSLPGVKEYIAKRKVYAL
- ASSAY TEXT: Inhibition of PxGSTσ2 recombinant protein
- Format: biochemical
- STUDY CONDITIONS: read-out: 100 μM Inhibition rate %
QUANTITY KIND: inhibition at 100 µM (%)

MOLECULE	inhibition at 100 µM [%]
CCC1(C)NC(=O)N(NC(=O)c2cc(-c3ccccc3)nn2-c2ccccc2)C1=O (stereo not drawn)	22.8
O=C(NNC(=O)c1cc(-c2ccccc2)nn1-c1ccccc1)c1cc[nH]c(=O)c1	58.1
O=C(NNC(=O)C1CCCC1)c1cc(-c2ccccc2)nn1-c1ccccc1	23.4
O=C(NN1C(=O)NC2(CCCCC2)C1=O)c1cc(-c2ccccc2)nn1-c1ccccc1	33.6
CC1CCC2(CC1)NC(=O)N(NC(=O)c1cc(-c3ccccc3)nn1-c1ccccc1)C2=O (stereo not drawn)	39.3

a. CN(C)S(=O)(=O)c1ccc(C(=O)NNC(=O)c2cc(-c3ccccc3)nn2-c2ccccc2)cc1
b. COc1ccccc1CC(=O)NNC(=O)c1cc(-c2ccccc2)nn1-c1ccccc1
c. O=C(CNc1ccccc1)NNC(=O)c1cc(-c2ccccc2)nn1-c1ccccc1
q: Parameters: sort_field (inhibition at 100 µM), sort_dir (desc). Field: ranking. Enter the labels in the order requested.
a: a, c, b
(a: 44.7%, c: 27.6%, b: 19.2%)

---

- SYSTEM: Chilo suppressalis GSTs
- ASSAY TEXT: Inhibition of total GSTs enzyme of Chilo suppressalis (CDNB method)
- Type: biochemical
pIC50: −log10 of the molar value.
Each entry below carries its recorded pIC50.

Known results for compounds:
O=C(NNC(=O)c1cc(-c2ccccc2)nn1-c1ccccc1)c1cc[nH]c(=O)c1 5.08
COc1ccccc1CC(=O)NNC(=O)c1cc(-c2ccccc2)nn1-c1ccccc1 < 4.00

q: Given the entry O=C(CNc1ccccc1)NNC(=O)c1cc(-c2ccccc2)nn1-c1ccccc1 , report its measured pIC50.
a: < 4.00

q: Try the compound CN(C)S(=O)(=O)c1cccc(C(=O)NNC(=O)c2cc(-c3ccccc3)nn2-c2ccccc2)c1
a: < 4.00

q: Try the compound N#Cc1ccc(OCC(=O)NNC(=O)c2cc(-c3ccccc3)nn2-c2ccccc2)cc1
a: < 4.00

---

- SYSTEM: PxGSTσ1 (Plutella xylostella)
- Sequence (Q6F436 entry or part of it): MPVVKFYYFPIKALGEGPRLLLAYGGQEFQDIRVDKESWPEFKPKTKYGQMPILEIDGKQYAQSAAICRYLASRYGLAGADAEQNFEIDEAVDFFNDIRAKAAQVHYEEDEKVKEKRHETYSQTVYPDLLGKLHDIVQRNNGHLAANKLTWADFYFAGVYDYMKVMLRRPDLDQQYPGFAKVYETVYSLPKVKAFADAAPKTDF
- ASSAY TEXT: Inhibition of PxGSTσ1 recombinant protein
- Assay type: biochemical
- STUDY CONDITIONS: read-out: 100 μM Inhibition rate %
QUANTITY KIND: inhibition at 100 µM (%)

MOLECULE	SYSTEM	QUANTITY KIND	REPORTED MEASUREMENT
Cc1csc(CC(=O)NNC(=O)c2cc(-c3ccccc3)nn2-c2ccccc2)n1 [PXG2]	PxGSTσ1 (Plutella xylostella)	inhibition at 100 µM	25.1
O=C(NNC(=O)c1cc(-c2ccccc2)nn1-c1ccccc1)c1ccccc1 [PXG11]	PxGSTσ1 (Plutella xylostella)	inhibition at 100 µM	60.7

P. O=C(CC12C[C@H]3C[C@H](C1)C[C@@H](C2)C3)NNC(=O)c1cc(-c2ccccc2)nn1-c1ccccc1 [PXG26]
Q. O=C(NNC(=O)c1cc(-c2ccccc2)nn1-c1ccccc1)c1cc(=O)[nH]c2ccccc12 [PXG22]
q: For the pair P and Q , which member has the lower inhibition at 100 µM number? # respond with the chosen item's label
a: Q
